Listed binders paired with reported SPOT intensity
target.under.test: T1, Boi1, P38041
T1 sequence (P38041 1-86, looked up): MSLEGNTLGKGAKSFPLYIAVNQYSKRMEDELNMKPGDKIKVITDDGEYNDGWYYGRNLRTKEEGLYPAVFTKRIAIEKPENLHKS
test: SPOT array
condition.label: median of control spots 1162

# binder, SPOT intensity
records = [
    ("ATNVPVAPPPPPASL", 0),
    ("YLTRPLPSTPNEDSR", 0),
    ("ISNFVPPNLPMRRFK", 0),
]

Reference for the values: paper PMC2756588
